Molecular target: T1, human B7-H4 (purified monomeric recombinant human protein, ACRO biosystems) (human, UniProt Q7Z7D3 29-258, limits assumed, chemically biotinylated (EZ-Link NHS-LC-Biotin) in the yeast display and competition experiments; non-biotinylated in SPR)
T1 construct: Bought recombinant monomeric protein; also called B7x; B7S1
T1 sequence: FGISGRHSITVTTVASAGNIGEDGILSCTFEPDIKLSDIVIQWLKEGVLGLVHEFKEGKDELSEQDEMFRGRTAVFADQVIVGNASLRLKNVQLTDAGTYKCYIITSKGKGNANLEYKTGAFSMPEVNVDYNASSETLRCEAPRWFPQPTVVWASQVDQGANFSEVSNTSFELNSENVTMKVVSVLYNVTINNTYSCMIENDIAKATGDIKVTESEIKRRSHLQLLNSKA
Assay: SPR (Carterra LSA); scFv-Fc captured on anti-human IgG Fc, antigen injected
Protocol: Finally, the affinity of the 24 clones was determined using high-throughput surface plasmon resonance (SPR). The supernatants were arrayed by non-covalent capture in a medium-density SPR chip previously coupled with an anti-human polyclonal antibody and (at least 4 replicates per clone). Non-biotinylated antigen was used for all affinity measurements and sensorgrams were fitted using a pseudo-first-order kinetic model (Lundström 1994). […]
RESULT_TYPE: KD fold-improvement (fold over parental)
// note: answer is a bare numeric in fold over parental

See these solved cases before continuing.
BINDER	RESULT_TYPE	UNIT_TAG	MEASURED_RESULT
B02 scFv-Fc (scFv, V domains shown, Tested as scFv-Fc fusion (human IgG1 Fc, vector pDNL9) in crude yeast supernatant; Combo 1 library) VH: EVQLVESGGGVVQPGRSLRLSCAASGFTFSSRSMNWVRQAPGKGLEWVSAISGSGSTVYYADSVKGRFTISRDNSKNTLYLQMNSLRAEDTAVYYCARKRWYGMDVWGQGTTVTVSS VL: SYELTQPPSVSVAPGKTARITCGGNNIGVKSVHWYQQKPGQAPVLVVYDDSDRSPGIPERFSGSNSGNTATLTISRVEAGDEADYYCQVWDSRTYVFGTGTKLTVL	KD fold-improvement	fold over parental	127
B04 scFv-Fc (scFv, V domains shown, Tested as scFv-Fc fusion (human IgG1 Fc, vector pDNL9) in crude yeast supernatant; Combo 1 library) VH: EVQLVESGGGVVQPGRSLRLSCAASGFSFSSRAMNWVRQAPGKGLEWVSAVSGSGSGTYYADSVKGRFTISRDNSKNTLYLQMNSLRAEDTAVYYCARKRWYGMDVWGQGTTVTVSS VL: SYELTQPPSVSVAPGKTARITCGGNNIGLKSVHWYQQKPGQAPVLVVYDDSDRPSGIPERFSGSNSGNTATLTISRVEAGDEADYYCQVWDRGMIFGTGTKLTVL	KD fold-improvement	fold over parental	43

input: Assign KD fold-improvement to the following record: A05 scFv-Fc (scFv, V domains shown, Tested as scFv-Fc fusion (human IgG1 Fc, vector pDNL9) in crude yeast supernatant; Combo 1 library) VH: EVQLVESGGGVVQPGRSLRLSCAASGFTYSSRAMNWVRQAPGKGLEWVSAISGSGSNAYYADSVKGRFTISRDNSKNTLYLQMNSLRAEDTAVYYCARKRWYGMDVWGQGTTVTVSS VL: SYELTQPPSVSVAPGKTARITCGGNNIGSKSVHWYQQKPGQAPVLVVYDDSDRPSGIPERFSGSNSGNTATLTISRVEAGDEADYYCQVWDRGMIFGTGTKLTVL
output: 63
